Test system: Vero C1008
Assay Text: Cytotoxicity against African green monkey Vero E6 cells assessed as cell growth inhibition after 48 hrs by celltitre 96 aqueous one-based assay
Settings: Chlorocebus sabaeus, Vero C1008, 48 h
Below, each entry is listed with its recorded IC50.
Provide the reading as a plain figure in µM.

Molecule | Measured On | IC50 [µM]
CCCCCCCCn1cc(CN2CCCCC2)c2ccc([N+](=O)[O-])cc21 | Vero C1008 | 23

Record request: IC50 value, item "COc1ccc(OCCCn2cc(CN3CCC4(CC3)OCCCO4)c3ccc(OC)cc32)cc1" 46

Repeat with "COc1ccc2c(CN3CCC4(CC3)OCCCO4)cn(CCCCc3ccccc3)c2c1" 21

Repeat with CCCCCCCCn1cc(CN2CCCC3(CC2)OCCS3)c2ccc(OC)cc21 (configuration not stated) 35

Repeat with "COc1ccc2c(CN3CCCCC3)cn(CCCc3ccccc3)c2c1" 43

Repeat with "CCCCCCCCn1cc(CN2CCC3(CC2)OCCCO3)c2ccc(OC(C)C)cc21" 20
